Assay Target: Ubiquitin carboxyl-terminal hydrolase 2 (Homo sapiens)
Procedure Text: Confirmation Assay for Inhibitors of Ubiquitin-specific Protease USP2a Using CHOP2 as the Reporter; further: nearly all actives have a fitted effect of over 55% in size
Test Settings: USP2 core, Ub-CHOP2 coupled reporter fluorescence; series mostly up to 38.3 µM
Inconclusive results are not listed. The source made the active and inactive calls. The call rests on the fitted dose curve; in most records, active means well fitted inhibition curve with a large enough effect; inconclusive means small, poorly fitted or top-dose-only effect, or effect the other way; inactive means flat fitted curve, though single readings scatter.
Possible outcomes: YES = active, NO = inactive

| Molecule | Group Label |
| --- | --- |
| OCCN(Cc1ccccc1)c1ncnc2sccc12 | NO |
| COc1ccc(NC(=O)CSc2nc(O)cc(=O)n2-c2ccc(OC)cc2)cc1 | NO |
| C=CC[C@H](CC(=O)N(CCO)Cc1ccccc1)C(=O)N[C@H](C)COC(=O)[C@@H](CC=C)CC(=O)OC(C)(C)C | NO |
| O=C(NCC(c1cccnc1)N1CCN(c2ccc(F)cc2)CC1)OCc1ccccc1 (stereo not drawn) | NO |
| COc1ccc(NC(=O)CSc2nnc(-c3ccccc3Cl)n2Cc2ccco2)c(OC)c1 | NO |
| COCc1c(C(=O)OCC(=O)c2c(N)n(CC(C)C)c(=O)n(C)c2=O)oc2ccccc12 | NO |
| C=CCSC1=N/C(=C\C=C\c2ccco2)C(=O)S1 | NO |
| COc1cccc(NC(=O)Cc2ccccc2)c1 | NO |
| NC1=NC2(CCC(c3ccccc3)CC2)n2c(nc3ccccc32)N1 (stereo not drawn) | NO |
| O=C(/C=N/O)NCc1cccnc1 | NO |
| CCCOC(=O)CCCCC1SCC(NC(=O)OC)C1NC(=O)OC (stereo not drawn) | NO |
| COc1ccc(CC(NC(C)=O)C(=O)NC2CCN(c3nc(C)cc(C)c3C#N)CC2)c(OC)c1 (stereo not drawn) | NO |
| O=C(Nc1ncccc1Cl)c1cccc(F)c1 | NO |
| O=C1CS/C(=C/C(=O)c2ccccc2)N1 | NO |
| CC1=NC(C(F)(F)F)(C(F)(F)F)C2=C(CC(C)(C)CC2=O)N1Cc1ccco1 | NO |
| O=C(NC1CCCC1)C1C2C=CC(C2)C1C(=O)N1CCOCC1 (stereo not drawn) | NO |
| CCN(CC)S(=O)(=O)c1ccc(-c2nnc(SCC(=O)Nc3ccc4c(c3)OCO4)o2)cc1 | NO |
| c1coc(CNC2CCCCCCC2)c1 | NO |
| Cc1ccc(CN2C(=O)N/C(=C\c3cccn3-c3cccc(C(=O)O)c3)C2=O)cc1 | NO |
| CCCNC(=O)CS(=O)Cc1nc(-c2ccccc2C)oc1C (stereo not drawn) | NO |
| CC(C)c1ccc(Nc2nnc(SCC(=O)c3nnc(-c4ccccc4)o3)s2)cc1 | YES |
| CCN1C(=O)C(NC(C)=O)c2cc(OC)ccc21 (stereo not drawn) | NO |
| c1coc(CNc2nc(-c3cccs3)cs2)c1 | NO |

###

Assay Target: Ubiquitin carboxyl-terminal hydrolase 2 (Homo sapiens) (UniProt O75604)
Sequence (O75604 whole entry, looked up): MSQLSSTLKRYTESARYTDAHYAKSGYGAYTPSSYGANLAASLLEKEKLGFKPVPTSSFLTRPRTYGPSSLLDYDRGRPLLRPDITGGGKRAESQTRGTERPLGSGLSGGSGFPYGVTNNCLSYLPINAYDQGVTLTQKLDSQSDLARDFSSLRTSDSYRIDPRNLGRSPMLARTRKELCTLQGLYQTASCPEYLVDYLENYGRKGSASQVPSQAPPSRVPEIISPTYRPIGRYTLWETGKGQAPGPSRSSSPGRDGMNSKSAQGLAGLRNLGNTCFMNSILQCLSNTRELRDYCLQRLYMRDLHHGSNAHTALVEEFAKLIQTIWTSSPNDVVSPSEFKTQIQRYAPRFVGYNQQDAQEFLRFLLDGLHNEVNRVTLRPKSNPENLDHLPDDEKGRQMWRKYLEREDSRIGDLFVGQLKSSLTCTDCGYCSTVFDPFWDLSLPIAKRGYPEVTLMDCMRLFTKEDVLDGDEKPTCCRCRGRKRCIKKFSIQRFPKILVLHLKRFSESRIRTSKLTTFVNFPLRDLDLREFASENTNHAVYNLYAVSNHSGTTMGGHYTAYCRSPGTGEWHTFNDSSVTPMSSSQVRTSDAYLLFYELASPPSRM
Procedure Text: Confirmation Assay for Inhibitors of Ubiquitin-specific Protease USP2a Using CHOP2 as the Reporter; further: nearly all actives have a fitted effect of over 55% in size
Test Settings: USP2 core, Ub-CHOP2 coupled reporter fluorescence; series mostly up to 38.3 µM
Inconclusive results are not listed. Activity calls are given as the source filed them. Calls come from the whole dose curve; as a rule, active = well fitted inhibition curve with a large enough effect; inconclusive = small, poorly fitted or top-dose-only effect, or effect the other way; inactive = flat fitted curve, though single readings scatter.
Possible outcomes: class 1 for active, class 0 for inactive

| Molecule | Assay Target | Group Label |
| --- | --- | --- |
| CC(CN1CCCCC1)OC(=O)c1ccc(Cl)cc1 (stereo unspecified) | Ubiquitin carboxyl-terminal hydrolase 2 (Homo sapiens) (UniProt O75604) | class 0 |
| O=C(Nc1cccc(Cl)c1)Nc1nnc(CC2=CCCCC2)s1 | Ubiquitin carboxyl-terminal hydrolase 2 (Homo sapiens) (UniProt O75604) | class 0 |
| O=C(N/N=C1\CC(c2ccccc2)Oc2ccccc21)c1ccc(O)cc1 (stereo unspecified) | Ubiquitin carboxyl-terminal hydrolase 2 (Homo sapiens) (UniProt O75604) | class 0 |
| COc1cccc(-c2csc3nnc(SCC(=O)NCc4cccs4)n23)c1 | Ubiquitin carboxyl-terminal hydrolase 2 (Homo sapiens) (UniProt O75604) | class 0 |
| COc1ccc(Cl)cc1S(=O)(=O)Nc1cccc(C(=O)O)c1 | Ubiquitin carboxyl-terminal hydrolase 2 (Homo sapiens) (UniProt O75604) | class 0 |
| CCOC(=O)c1[nH]c2ccc(OC)cc2c1NC(=O)CCN1CCCC(C)C1 (stereo unspecified) | Ubiquitin carboxyl-terminal hydrolase 2 (Homo sapiens) (UniProt O75604) | class 0 |
| Cc1ccc(NC(=O)Cn2nc(C)c3ccccc3c2=O)cc1F | Ubiquitin carboxyl-terminal hydrolase 2 (Homo sapiens) (UniProt O75604) | class 0 |
| O=C(O)CC1(CC(=O)Nc2ccc3ccccc3c2)CCCCC1 | Ubiquitin carboxyl-terminal hydrolase 2 (Homo sapiens) (UniProt O75604) | class 0 |
| CCc1nnc(NC(=O)CSc2nccn2-c2cccc(C)c2)s1 | Ubiquitin carboxyl-terminal hydrolase 2 (Homo sapiens) (UniProt O75604) | class 0 |
| O=C(CSc1ccc(Br)c2cccc(Cl)c12)Nc1ccc(S(=O)(=O)Nc2nccs2)cc1 | Ubiquitin carboxyl-terminal hydrolase 2 (Homo sapiens) (UniProt O75604) | class 1 |
| CCOC(=O)C1=CN(Cc2cccc(F)c2)S(=O)(=O)NC1c1ccc(Br)cc1F (stereo unspecified) | Ubiquitin carboxyl-terminal hydrolase 2 (Homo sapiens) (UniProt O75604) | class 0 |

###

Assay Target: Ubiquitin carboxyl-terminal hydrolase 2 (Homo sapiens)
Procedure Text: Confirmation Assay for Inhibitors of Ubiquitin-specific Protease USP2a Using CHOP2 as the Reporter; further: nearly all actives have a fitted effect of over 55% in size; further: potency means the concentration at half of the fitted maximal effect
Test Settings: USP2 core, Ub-CHOP2 coupled reporter fluorescence; series mostly up to 38.3 µM
Description: NIH Molecular Libraries Probe Centers Network [MLPCN] NIH Chemical Genomics Center [NCGC] MLSCN Grant: XO1-MH079852-01 PI Name: Nicholson, Ben. […] Thus, this coupled assay gives a fluorescent read-out at excitation/emission wavelengths of 485/531. […] NCGC Assay Protocol Summary: The assay buffer, prepared fresh at the day of the assay, contains 20mM Tris-HCl pH 8.0, 2mM CaCl2, 2mM beta-Mercaptoethanol, 0.05% CHAPS. […] The time zero reading was used to flag fluorescence artifacts. […]
Records with an inconclusive call do not appear. The source made the active and inactive calls. Calls follow the shape of the dose curve; as a rule, active = well fitted inhibition curve with a large enough effect; inconclusive = small, poorly fitted or top-dose-only effect, or effect the other way; inactive = flat fitted curve, though single readings scatter.

| Molecule | Potency |
| --- | --- |
| Cc1cc(SCC(=O)NC2CCCCC2)nc2ccccc12 | inactive |
| Cc1csc(NC(=O)CCn2c(=O)sc3ccccc32)n1 | inactive |
| c1ccc(CN2CCN(CCOCCOc3cccc4ccccc34)CC2)cc1 | inactive |
| COc1ccc(/C=N\NC(=O)c2cc(O)c(O)c(O)c2)cc1COc1ccc(C(=O)OCC(C)C)cc1 | 14.7 µM (active) |
| O=C(CSc1nc(N2CCCCC2)nc(N2CCCCC2)n1)N1CCN(c2ccccc2)CC1 | inactive |
| CCOC(=O)C1CCN(CC(O)COc2ccc(C(C)(C)C)cc2)CC1 (stereo unspecified) | inactive |

###

Assay Target: Ubiquitin carboxyl-terminal hydrolase 2 (Homo sapiens)
Procedure Text: Confirmation Assay for Inhibitors of Ubiquitin-specific Protease USP2a Using CHOP2 as the Reporter; further: nearly all actives have a fitted effect of over 55% in size; further: potency means the concentration at half of the fitted maximal effect
Test Settings: USP2 core, Ub-CHOP2 coupled reporter fluorescence; series mostly up to 38.3 µM
Results filed as inconclusive are left out. Calls of active or inactive are those of the source. Calls follow the shape of the dose curve; as a rule, active = well fitted inhibition curve with a large enough effect; inconclusive = small, poorly fitted or top-dose-only effect, or effect the other way; inactive = flat fitted curve, though single readings scatter.

| Chemical String | Potency |
| --- | --- |
| O=C(Nc1ccc(Nc2ccncc2)cc1)c1ccc(Nc2ccnc3ccc([N+](=O)[O-])cc23)cc1[N+](=O)[O-] | inactive |
| O=C1/C(=C/C=C/c2ccco2)SC(=S)N1c1ccc(O)cc1 | 5.21 µM (active) |
| CCOC(=O)Nc1ccc(S(=O)(=O)Nc2cc(C)nc(C)n2)cc1 | inactive |
| Cc1ccc(C)n1-c1cc(S(=O)(=O)N2CCOCC2)ccc1N1CCCC1 | inactive |
| CCc1cc2cccc(C)c2nc1SCC(=O)N1CCN(C(=O)c2ccco2)CC1 | inactive |
| Cn1c(=O)c(C(=O)Nc2ccccc2S(N)(=O)=O)c(O)c2ccccc21 | 14.7 µM (active) |
| CCc1sc(/C=C(/C#N)C(N)=S)cc1[N+](=O)[O-] | inactive |
| C[C@@H]1CN([C@H](C)CO)C(=O)c2cc(NS(=O)(=O)c3ccc(F)cc3)ccc2O[C@@H]1CN(C)Cc1ccc(Cl)c(Cl)c1 | inactive |
| O=C(CN1CCOCC1)Nc1ccc(C2CCCCC2)cc1 | inactive |
| Cc1noc(NS(=O)(=O)c2ccc(N3CC(O)=C(c4ccccc4)C3=N)cc2)c1C | inactive |

###

Assay Target: Ubiquitin carboxyl-terminal hydrolase 2 (Homo sapiens) (UniProt O75604)
Procedure Text: Confirmation Assay for Inhibitors of Ubiquitin-specific Protease USP2a Using CHOP2 as the Reporter; further: nearly all actives have a fitted effect of over 55% in size
Test Settings: USP2 core, Ub-CHOP2 coupled reporter fluorescence; series mostly up to 38.3 µM
Inconclusive results are not listed. The source made the active and inactive calls. Calls come from the whole dose curve; as a rule, active = well fitted inhibition curve with a large enough effect; inconclusive = small, poorly fitted or top-dose-only effect, or effect the other way; inactive = flat fitted curve, though single readings scatter.

| Molecule | Assay Target | outcome |
| --- | --- | --- |
| COc1cc(C(=O)OCC(=O)Nc2c(F)c(F)c(F)c(F)c2F)cc(OC)c1OC | Ubiquitin carboxyl-terminal hydrolase 2 (Homo sapiens) (UniProt O75604) | inactive |
| O=C1CC(Nc2ccc(N3CCOCC3)cc2)C(=O)N1c1cccc(C(F)(F)F)c1 (stereo unspecified) | Ubiquitin carboxyl-terminal hydrolase 2 (Homo sapiens) (UniProt O75604) | inactive |
| COC(=O)c1ccc(NC(=O)CSC2=Nc3ccccc3C3CC=NN23)cc1 (stereo unspecified) | Ubiquitin carboxyl-terminal hydrolase 2 (Homo sapiens) (UniProt O75604) | inactive |
| CC1CCN(CC(O)COc2cccc(F)c2)CC1 (stereo unspecified) | Ubiquitin carboxyl-terminal hydrolase 2 (Homo sapiens) (UniProt O75604) | inactive |
| CC1CCCC(NC(=O)C2N(CCCN3CCCC3)C(=O)C3C(C(=O)Nc4ccc(Cl)cc4)C4C=CC32O4)C1C (stereo unspecified) | Ubiquitin carboxyl-terminal hydrolase 2 (Homo sapiens) (UniProt O75604) | inactive |
| CC(C)(C)c1cc(Br)ccc1OCC(=O)Nc1ncn[nH]1 | Ubiquitin carboxyl-terminal hydrolase 2 (Homo sapiens) (UniProt O75604) | inactive |
